# system-tested: Peptidylglycine alpha-amidating monooxygenase (Rattus norvegicus)
# Sequence (whole entry): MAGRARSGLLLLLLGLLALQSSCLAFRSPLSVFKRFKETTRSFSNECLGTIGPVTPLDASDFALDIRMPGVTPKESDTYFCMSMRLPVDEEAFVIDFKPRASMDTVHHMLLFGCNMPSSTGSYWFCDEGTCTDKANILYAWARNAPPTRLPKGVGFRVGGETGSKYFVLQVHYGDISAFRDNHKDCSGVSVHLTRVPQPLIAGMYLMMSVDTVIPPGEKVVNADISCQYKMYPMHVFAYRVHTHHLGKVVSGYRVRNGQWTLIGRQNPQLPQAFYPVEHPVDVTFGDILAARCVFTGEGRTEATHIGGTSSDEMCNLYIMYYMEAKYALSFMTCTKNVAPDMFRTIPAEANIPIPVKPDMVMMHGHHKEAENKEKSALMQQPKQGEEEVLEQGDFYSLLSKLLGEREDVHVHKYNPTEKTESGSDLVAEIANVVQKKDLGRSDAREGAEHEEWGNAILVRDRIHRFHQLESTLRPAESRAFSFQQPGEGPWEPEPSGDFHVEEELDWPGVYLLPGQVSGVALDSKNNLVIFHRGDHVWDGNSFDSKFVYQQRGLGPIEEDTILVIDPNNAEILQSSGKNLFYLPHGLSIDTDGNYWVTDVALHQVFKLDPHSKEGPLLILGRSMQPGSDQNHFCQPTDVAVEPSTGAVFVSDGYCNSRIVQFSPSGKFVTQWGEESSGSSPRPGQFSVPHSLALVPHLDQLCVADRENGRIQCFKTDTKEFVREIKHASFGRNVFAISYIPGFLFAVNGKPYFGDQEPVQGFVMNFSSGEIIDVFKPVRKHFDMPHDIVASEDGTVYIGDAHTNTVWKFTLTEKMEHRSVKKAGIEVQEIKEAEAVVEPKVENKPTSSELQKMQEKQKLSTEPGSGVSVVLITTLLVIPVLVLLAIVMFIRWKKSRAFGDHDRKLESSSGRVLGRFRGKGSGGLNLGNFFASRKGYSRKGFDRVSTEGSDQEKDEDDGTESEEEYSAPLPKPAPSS
# protocol-notes: Ratio of Vm(app) to Km(app) for rat recombinant peptidylglycine alpha-amidating monooxygenase
We begin with a simple list: items and their reported Ratio.
readout-label: Ratio (×10³ /M/s)

1. O=C(O)CNC(=O)c1ccc(C(F)(F)F)cc1 :: 3.6
2. Cc1ccc(C(=O)NCC(=O)O)cc1 :: 3.2
3. Nc1ccc(C(=O)NCC(=O)O)cc1 :: 2.2
4. CC(Cc1ccccc1)C(=O)NCC(=O)O (stereo unspecified) :: 4.3
5. Nc1ccccc1C(=O)NCC(=O)O :: 2.9
6. CC(=O)NCC(=O)NCC(=O)O :: 5.9

====

We begin with a simple list: items and their reported Ratio.
# system-tested: Peptidylglycine alpha-amidating monooxygenase (Rattus norvegicus)
# protocol-notes: Ratio of Vm(app) to Km(app) for rat recombinant peptidylglycine alpha-amidating monooxygenase
readout-label: Ratio

1) O=C(O)CNC(=O)c1cccc(Cl)c1 :: 3.6 ×10³ /M/s
2) O=C(O)CNC(=O)c1ccc(O)cc1 :: 3.5 ×10³ /M/s
3) O=C(O)CNC(=O)C1CC1c1ccccc1 (stereo not drawn) :: 1.1 ×10⁴ /M/s
4) C[C@@H](NC(=O)c1ccccc1)C(=O)O :: 3.2 M⁻¹ s⁻¹
5) O=C(O)CNC(=O)CCCCCCCc1ccccc1 :: 7.6 ×10⁴ /M/s
6) COc1ccc(C(=O)NCC(=O)O)cc1 :: 6.4 ×10³ /M/s
7) CC(=O)N[C@H](C)C(=O)O :: 0.95 M⁻¹ s⁻¹
8) O=C(O)CNC(=O)CCCCc1ccccc1 :: 7.6 ×10⁴ /M/s
